Record form. Attribute: TGI. Fill in for each entry.
- Test system: HS 578T breast
- protocol.details: NCI tumour cell line growth inhibition, 48 h
Answers are plain numbers, in µM.

> print(dat)
                                   molecule  result.type  measured.result
1  Clc1ccc(-c2ccc(-c3nnc(CCc4nnc(-c5ccc(-c6ccc(Cl)cc6)o5)o4)o3)o2)cc1          TGI               86
2  COc1cccc(C2CC(c3cc(OC)c(OC)c(OC)c3)=NN2)c1 (centres undefined)          TGI             49.4

Return reported TGI values for all items listed beneath this line.
1. O=C1c2c(F)c(F)c(F)c(F)c2SC2=NCCN12
2. COc1cc(-c2nn3c(/C=C4/C(=O)Nc5ccccc54)c(-c4ccc(C)cc4)nc3s2)cc(OC)c1OC

**A:**
1. 46.4
2. 7.49

---

- Tested on: DLD-1 colon
- protocol.details: NCI tumour cell line growth inhibition, 48 h
result.type: TGI

As a guide, the following entries are already answered.
> print(dat)
                                   compound  measured.result
1  Cc1ccc(C)c(NC(=O)C(=O)CC(=O)C2CCOC2=O)c1 (centres undefined)         > 100 µM
2  CC(=O)OCC1OC(Nc2[nH]c(=O)n(C)c(=O)c2-c2csc(N)n2)C(OC(C)=O)C(OC(C)=O)C1OC(C)=O (centres undefined)         > 100 µM
3  NNC(=S)N/N=C(\CCCC(=O)NCCc1ccccc1)CC(=O)c1ccccc1         > 100 µM

Return reported TGI values for all items listed beneath this line.
1. COc1c2c(c3c(c1C1OC(C)[C@@H](C)O1)CC(C)(C)O3)C(=O)c1ccccc1C2=O (some centres undefined)
2. N#C/C(=C\c1ccccc1O)C(N)=O
3. CC1=CC2CC(C)=C(CC[C@]3(C)CC[C@H]([C@@H](C)C(=O)O)OO3)C(C)(C)C2CC1 (some centres undefined)
4. O=C(O)CN(c1ccccc1)S(=O)(=O)c1ccc(NC(=O)c2ccccc2)cc1

**A:**
1: > 100 µM; 2: > 100 µM; 3: 0.426 µM; 4: > 100 µM

---

- Test system: NCI-H23 lung
- protocol.details: NCI tumour cell line growth inhibition, 48 h
result.type: TGI

As a guide, the following entries are already answered.
> print(dat)
                                   molecule  measured.result
1  C=C1C(=O)O[C@H]2[C@H]1CC/C(CNC(=O)/C=C/c1ccc(Br)cc1)=C\CC[C@@]1(C)O[C@@H]21          3.05 µM
2  COc1cccc2c1C(=O)c1c(O)c3c(c(O)c1C2=O)CC(O)(C(C)=O)CC3OC1CC(N)C(O)C(C)O1 (stereo unspecified)      0.692 µg/mL
3  CCOC(=O)c1cn(-c2ccccc2)c(=S)n2c1nc1ccccc12         > 100 µM

Return reported TGI values for all items listed beneath this line.
1. COC1=CC(c2ccc[nH]2)=N/C1=C\c1[nH]c(C)c(C(=O)OCc2ccccc2)c1C
2. C1OCC2S[C@@H]3COCO[C@@H]3C2O1 (stereo partly specified)
3. CCC(C)[C@H](NC(=O)[C@H](Cc1ccccc1)NC(=O)N(CC)c1ccccc1)C(=O)N[C@@H](CC(C)C)C(=O)OC (stereo partly specified)
4. C1=C(c2ccccc2)CN(c2ccccc2)OC1
5. O=C(Cc1ccccc1)NCCc1ccc(O)c(O)c1
6. C=C(C)[C@@]1(O)O[C@H]2C[C@@]3(C)OC(=CC3=O)/C(C)=C\[C@@H]3OC(=O)[C@@]1(C)[C@H]32

**A:**
1. 1.74 µM
2. > 100 µM
3. > 100 µM
4. > 100 µM
5. > 100 µM
6. > 31.6 µM

Return reported TGI values for all items listed beneath this line.
1. COc1ccc2oc(=N)c(C(=O)Nc3cccc4ccccc34)cc2c1
2. CN1C(=O)c2c(ccc3c2OCO3)C2C(O)Cc3cc4c(cc3C21)OCO4 (stereo unspecified)

**A:**
["> 100 µM", "> 100 µM"]

---

Record form. Attribute: TGI. Fill in for each entry.
- System: SK-MEL-5 melanoma
- protocol.details: NCI tumour cell line growth inhibition, 48 h

As a guide, the following entries are already answered.
> print(dat)
                                   compound  measured.result
1       CO/C(=N\N=C\c1cc(OC)ccc1OC)c1ccncc1          > 10 µM
2  CC1=CC2CC(C)=C(CC[C@]3(C)CC[C@H]([C@@H](C)C(=O)O)OO3)C(C)(C)C2CC1 (some centres undefined)          2.52 µM
3  C1OCC2S[C@@H]3COCO[C@@H]3C2O1 (some centres undefined)         > 100 µM

**Q:** Param readout= TGI; system= SK-MEL-5 melanoma; entry= `O=C(O)c1ccccc1Cc1ccco1` ; returns value.
**A:** > 100 µM

---

- Test system: KM12 colon
- protocol.details: NCI tumour cell line growth inhibition, 48 h; in the data active = GI50 below about 0.43 µM; inactive = the rest
Log the outcome using a class from active, inactive

**Q:** Could you kindly confirm the outcome this assay logged for `O=P([O-])(O)OP(=O)([O-])O.[NH-][C@H]1CCCC[C@@H]1[NH-].[OH-].[OH-].[Pt+4]` ?
**A:** inactive

**Q:** Could you kindly confirm the outcome this assay logged for `COc1cc(-c2nn3c(/C=C4/C(=O)Nc5ccccc54)c(-c4ccc(C)cc4)nc3s2)cc(OC)c1OC` ?
**A:** inactive

**Q:** Could you kindly confirm the outcome this assay logged for c1ccc(CNC2CC(NCc3ccccn3)CC(NCc3ccccn3)C2)nc1 (stereo not given) ?
**A:** inactive

**Q:** Could you kindly confirm the outcome this assay logged for `COc1cc2c(/C=N\N=C(N)N)c(Cl)[nH]c2cc1C` ?
**A:** inactive

**Q:** Could you kindly confirm the outcome this assay logged for `COc1ccc(-c2[nH]ncc2-c2cc3c(c(OC)c2)OCC(=O)N3)cc1` ?
**A:** active

---

- Test system: UO-31 renal
- protocol.details: NCI tumour cell line growth inhibition, 48 h; in the data active = GI50 below about 0.43 µM; inactive = the rest
Log the outcome using a class from active, inactive

A selection of reference data follows.
> print(dat)
                                   compound  system.tested  class.label
1  COc1cccc([C@H]2CC(=O)c3cc4c(cc3N2)OCO4)c1    UO-31 renal       active
2           Cc1cc(C)nc(NC(N)=NCCc2ccccc2)n1    UO-31 renal     inactive
3  COc1cc2c(cc1OCCCN1CCN(CCCOc3cc4c(cc3OC)C(=O)N3CCC[C@H]3C=N4)CC1)C=CC(C)(C)O2    UO-31 renal     inactive

**Q:** Could you kindly confirm the outcome this assay logged for `Cc1nc2ccc(CN(C)c3ccc(C(=O)N[C@@H](CCC(=O)O)C(=O)O)s3)cc2c(=O)[nH]1` ?
**A:** active

**Q:** Could you kindly confirm the outcome this assay logged for `C=CC(=O)Nc1ccc(Nc2nccc(-c3ccc(N4CCCC4)c(C#N)c3)n2)cc1` ?
**A:** inactive

**Q:** Could you kindly confirm the outcome this assay logged for `O=[N+]([O-])c1ccc(Nc2ccccc2-c2ccccc2)c2nonc12` ?
**A:** inactive

**Q:** Could you kindly confirm the outcome this assay logged for C(=Nc1ccccc1)C1CCCC[N-]1.C(=Nc1ccccc1)C1CCCC[N-]1.[Cu+2].[O-][Cl+3]([O-])([O-])O (stereo not drawn) ?
**A:** inactive

**Q:** Could you kindly confirm the outcome this assay logged for `O=C(/C=C/c1ccc(B(O)O)cc1)/C=C/c1ccc(B(O)O)cc1` ?
**A:** inactive

**Q:** Could you kindly confirm the outcome this assay logged for `CCC[CH2][Sn]([CH2]CCC)([O]C(=O)c1c(F)cccc1F)[O]C(=O)c1c(F)cccc1F` ?
**A:** inactive

**Q:** Could you kindly confirm the outcome this assay logged for Nc1ccn(C2OC(CO)C(O)C2F)c(=O)n1 (stereo not drawn) ?
**A:** inactive

---

- System: COLO 205 colon
- protocol.details: NCI tumour cell line growth inhibition, 48 h
Record form. Attribute: TGI. Fill in for each entry.

molecule	measured.result
CC/C(Cc1ccccc1)=C(\c1ccc(OCCN2CCCCCC2)cc1)c1ccc(OC(=O)NCc2ccccc2)cc1	1.99 µM
Cc1ccccc1NC(=S)Nc1ccccn1	> 100 µM
CC(=O)N1CCN(C2=Nc3ccccc3CO2)C1=S	> 100 µM

Return reported TGI values for all items listed beneath this line.
1. CC(=O)NC1C(OCc2ccccc2)OC(CO)C(O)C1OCC(=O)NC(C)C(=O)NC(CCC(=O)NCCCCNc1ccc([N+](=O)[O-])c2[nH]c3ccccc3c(=O)c12)C(N)=O (stereo not given)
2. CC(C)=CCN=C(N)N
3. O=C(O)c1ccccc1Cc1ccco1
4. Cc1ccc(S(=O)(=O)N/N=C/c2oc(-c3cccc([N+](=O)[O-])c3)c(-c3cccc([N+](=O)[O-])c3)c2[N+](=O)[O-])cc1
5. COc1ccc(C#Cc2ccccc2C#CCCCCO)cc1

**A:**
1: > 100 µM; 2: > 100 µM; 3: > 100 µM; 4: > 100 µM; 5: 33.4 µM

Return reported TGI values for all items listed beneath this line.
1. CO/C(=N\N=C\c1cc(OC)ccc1OC)c1ccncc1
2. O=C1C=CC2CCC1C2 (stereo not given)

**A:**
1. > 10 µM
2. > 100 µM
